Cited source: patent USRE38132E1

# assayedTarget: interaction of ICAM-1 with the Leukointegrin CD18/CD11a (LFA-1) (Homo sapiens, UniProt P05107+P20701)
# Construct: endogenous in cells; sICAM-1: made in house, secreted from transfected CHO DUX cells
# Sequence (P20701 26-1170): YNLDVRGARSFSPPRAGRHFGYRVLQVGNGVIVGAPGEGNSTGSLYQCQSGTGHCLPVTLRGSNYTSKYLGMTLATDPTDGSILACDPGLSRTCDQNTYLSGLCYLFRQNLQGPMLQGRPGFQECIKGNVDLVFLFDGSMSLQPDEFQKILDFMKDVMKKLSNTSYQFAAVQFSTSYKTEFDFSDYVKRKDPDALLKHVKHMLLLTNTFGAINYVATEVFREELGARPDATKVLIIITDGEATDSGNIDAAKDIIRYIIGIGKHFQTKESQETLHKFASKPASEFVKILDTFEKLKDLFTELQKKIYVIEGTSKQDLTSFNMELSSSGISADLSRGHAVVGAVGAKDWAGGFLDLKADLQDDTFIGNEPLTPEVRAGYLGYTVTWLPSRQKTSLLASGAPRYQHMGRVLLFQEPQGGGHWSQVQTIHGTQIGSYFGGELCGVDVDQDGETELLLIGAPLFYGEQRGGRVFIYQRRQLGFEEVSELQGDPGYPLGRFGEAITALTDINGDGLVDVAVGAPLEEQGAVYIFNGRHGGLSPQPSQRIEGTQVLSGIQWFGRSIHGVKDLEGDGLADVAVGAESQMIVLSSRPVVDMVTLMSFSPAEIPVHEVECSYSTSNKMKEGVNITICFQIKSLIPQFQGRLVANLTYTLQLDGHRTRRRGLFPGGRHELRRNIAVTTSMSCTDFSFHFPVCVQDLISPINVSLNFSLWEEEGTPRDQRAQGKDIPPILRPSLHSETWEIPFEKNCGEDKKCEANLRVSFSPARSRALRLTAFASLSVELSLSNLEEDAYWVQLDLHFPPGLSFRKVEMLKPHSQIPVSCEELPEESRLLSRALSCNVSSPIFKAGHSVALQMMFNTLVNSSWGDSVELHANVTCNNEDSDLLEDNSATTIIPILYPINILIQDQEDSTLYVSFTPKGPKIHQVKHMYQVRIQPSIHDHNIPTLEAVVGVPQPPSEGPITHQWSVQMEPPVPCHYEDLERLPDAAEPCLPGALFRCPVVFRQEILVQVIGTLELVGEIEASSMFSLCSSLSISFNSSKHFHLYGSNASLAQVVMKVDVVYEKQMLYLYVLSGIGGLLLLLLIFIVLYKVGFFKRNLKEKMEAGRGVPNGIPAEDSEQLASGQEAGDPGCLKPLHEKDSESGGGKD
# Sequence (P05107 23-769): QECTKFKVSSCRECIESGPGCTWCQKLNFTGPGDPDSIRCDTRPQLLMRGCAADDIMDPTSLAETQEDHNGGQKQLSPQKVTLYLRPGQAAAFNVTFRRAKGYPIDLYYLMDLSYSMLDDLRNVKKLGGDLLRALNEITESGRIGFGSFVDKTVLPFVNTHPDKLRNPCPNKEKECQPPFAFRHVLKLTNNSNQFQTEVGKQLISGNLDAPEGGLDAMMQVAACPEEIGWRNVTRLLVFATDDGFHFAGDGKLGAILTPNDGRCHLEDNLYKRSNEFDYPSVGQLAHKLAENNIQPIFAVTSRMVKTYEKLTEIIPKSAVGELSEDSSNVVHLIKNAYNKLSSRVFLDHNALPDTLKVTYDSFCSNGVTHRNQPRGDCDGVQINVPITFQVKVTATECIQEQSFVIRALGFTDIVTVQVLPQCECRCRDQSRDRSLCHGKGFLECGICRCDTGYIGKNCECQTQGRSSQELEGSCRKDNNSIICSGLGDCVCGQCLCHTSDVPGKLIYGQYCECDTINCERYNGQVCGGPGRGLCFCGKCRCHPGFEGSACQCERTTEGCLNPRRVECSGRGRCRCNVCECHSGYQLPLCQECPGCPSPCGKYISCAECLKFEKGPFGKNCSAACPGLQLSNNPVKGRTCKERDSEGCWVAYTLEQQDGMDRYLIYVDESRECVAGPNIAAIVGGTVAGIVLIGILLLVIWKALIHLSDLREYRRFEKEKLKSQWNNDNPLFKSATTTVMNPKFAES
# assayExplanation: Assay to determine inhibition of LFA-1 binding to ICAM-1 (immunopurified LFA-1 on plate-bound sICAM-1, ELISA readout)
# runConditions: values marked e approximated from incomplete dose-response curve
readoutLabel: pKd
Units for pKd: none; it is -log10 of a concentration expressed in mol/L.

Query string: Name the recorded pKd for CC1(Cc2ccc(C(F)(F)F)cc2)NC(=O)N(c2cc(Cl)cc(Cl)c2)C1=O (stereo not drawn) [Example 51] .
Result string: 6.37

Query string: Name the recorded pKd for C[C@@H](c1ccccc1)[C@H]1NC(=O)N(c2cc(Cl)cc(Cl)c2)C1=O [Example 22] .
Result string: 6.40

Query string: Name the recorded pKd for CC(N)(Cc1c[nH]c2ccccc12)C(=O)O (stereo not drawn) [Example 25] .
Result string: 5.51

Query string: Name the recorded pKd for COc1ccc(CC2NC(=O)N(c3cc(Cl)cc(Cl)c3)C2=O)cc1 (stereo not drawn) [Example 8] .
Result string: 5.54

Query string: Name the recorded pKd for O=C1NC(Cc2ccsc2)C(=O)N1c1cc(Cl)cc(Cl)c1 (stereo not drawn) [Example 26] .
Result string: 5.56

Query string: Name the recorded pKd for CC1(Cc2cccc(O)c2)NC(=O)N(c2cc(Cl)cc(Cl)c2)C1=O (stereo not drawn) [Example 11] .
Result string: 5.20

Query string: Name the recorded pKd for CCN1C(=O)N(c2cc(Cl)cc(Cl)c2)C(=O)C1(C)Cc1ccc(Br)cc1 (stereo not drawn) [Example 105] .
Result string: 6.92

Query string: Name the recorded pKd for C[C@H](c1ccccc1)[C@H]1NC(=O)N(c2cc(Cl)cc(Cl)c2)C1=O [Example 21] .
Result string: 6.16

Query string: Name the recorded pKd for CN1C(=O)N(c2cc(Cl)cc(Cl)c2)C(=O)C1(C)Cc1cccc(Cl)c1 (stereo not drawn) [Example 155] .
Result string: 6.29

Query string: Name the recorded pKd for CN1C(=O)N(c2cc(Cl)c(Cl)c(Cl)c2)C(=O)C1(C)Cc1ccc(Br)cc1 (stereo not drawn) [Example 159] .
Result string: 6.96

Query string: Name the recorded pKd for CC(C)N1C(=O)N(c2cc(Cl)cc(Cl)c2)C(=O)C1Cc1ccccc1 (stereo not drawn) [Example 10] .
Result string: 6.72

Query string: Name the recorded pKd for CC1(Cc2ccc(-c3ccc(Cl)s3)cc2)NC(=O)N(c2cc(Cl)cc(Cl)c2)C1=O (stereo not drawn) [Example 199] .
Result string: 6.57

Query string: Name the recorded pKd for CC(C)N1C(=O)N(c2cc(Cl)cc(Cl)c2)C(=O)C1(C)Cc1ccc(Br)cc1 (stereo not drawn) [Example 139] .
Result string: 6.10

Query string: Name the recorded pKd for CC1(Cc2ccccc2)NC(=O)N(c2cc(Cl)cc(Cl)c2)C1=O (stereo not drawn) [Example 18] .
Result string: 6.12

Query string: Name the recorded pKd for CN1C(=O)N(c2cc(Cl)cc(Cl)c2)C(=O)C1(C)Cc1cccc(F)c1 (stereo not drawn) [Example 147] .
Result string: 6.47

Query string: Name the recorded pKd for O=C1NC(Cc2ccccc2)C(=O)N1c1cc(Cl)c(Cl)c(Cl)c1 (stereo not drawn) [Example 70] .
Result string: 5.72

---

Observed Cellular Toxicity Assay MTT LD50 values for SKW3 cells are listed in what follows.

Query string: Name the recorded Cellular Toxicity Assay MTT LD50 for C[C@@]1(Cc2ccc(Br)cc2)C(=O)N(c2cc(Cl)cc(Cl)c2)C(=O)N1C[C@H](O)c1ccccc1 .
Result string: 200 to 400 µM

Query string: Name the recorded Cellular Toxicity Assay MTT LD50 for CN1C(=O)N(c2cc(Cl)cc(Cl)c2)C(=O)[C@@]1(C)Cc1ccc(-c2cccnc2)cc1 .
Result string: 56 to 112 µM

Query string: Name the recorded Cellular Toxicity Assay MTT LD50 for C[C@]1(Cc2cc(Br)cc(Br)c2)NC(=O)N(c2cc(Cl)cc(Cl)c2)C1=O .
Result string: 50 to 100 µM

Query string: Name the recorded Cellular Toxicity Assay MTT LD50 for C[C@@]1(Cc2ccc(Br)cc2)C(=O)N(c2cc(Cl)cc(Cl)c2)C(=O)N1CCCN .
Result string: 11 to 23 µM

Query string: Name the recorded Cellular Toxicity Assay MTT LD50 for C[C@@]1(Cc2ccc(Br)cc2)C(=O)N(c2cc(Cl)cc(Cl)c2)C(=O)N1Cc1cccc(C(=O)O)c1 .
Result string: 50 to 100 µM

Query string: Name the recorded Cellular Toxicity Assay MTT LD50 for CC(C)N1C(=O)N(c2cc(Cl)cc(Cl)c2)C(=O)C1Cc1ccc(Br)cc1 (centres unmarked) .
Result string: 200 to 400 µM

Query string: Name the recorded Cellular Toxicity Assay MTT LD50 for CN1C(=O)N(c2cc(Cl)cc(Cl)c2)C(=O)[C@@]1(C)Cc1ccc(Br)cc1 .
Result string: 250 to 500 µM

Query string: Name the recorded Cellular Toxicity Assay MTT LD50 for CN1C(=O)N(c2cc(Cl)c(Cl)c(Cl)c2)C(=O)C1(C)Cc1ccc(Br)cc1 (centres unmarked) .
Result string: 50 to 100 µM

---

Please respond with reported Cellular Toxicity Assay MTT LD50 for every item in the list.

Query string: Request: Cellular Toxicity Assay MTT LD50, test system SKW3 cells, entry C[C@@]1(Cc2ccc(Br)cc2)C(=O)N(c2cc(Cl)cc(Cl)c2)C(=O)N1CCO
Result string: 50 to 100 µM

Query string: Request: Cellular Toxicity Assay MTT LD50, test system SKW3 cells, entry O=C1NC(Cc2cccc(O)c2)C(=O)N1c1cc(Cl)cc(Cl)c1 (stereo not shown)
Result string: 250 to 500 µM

Query string: Request: Cellular Toxicity Assay MTT LD50, test system SKW3 cells, entry C[C@@]1(Cc2ccc(Br)cc2)C(=O)N(c2cc(Cl)cc(Cl)c2)C(=O)N1CCCNC(=N)N
Result string: 25 to 75 µM

Query string: Request: Cellular Toxicity Assay MTT LD50, test system SKW3 cells, entry C[C@@]1(Cc2ccc(Br)cc2)C(=O)N(c2cc(Cl)cc(Cl)c2)C(=O)N1Cc1ccncc1
Result string: 25 to 50 µM

Query string: Request: Cellular Toxicity Assay MTT LD50, test system SKW3 cells, entry C[C@@]1(Cc2ccc(Br)cc2)C(=O)N(c2cc(Cl)cc(Cl)c2)C(=O)N1Cc1ccc(C(=N)N)cc1
Result string: 16 to 32 µM

Query string: Request: Cellular Toxicity Assay MTT LD50, test system SKW3 cells, entry CC1(Cc2ccccc2)NC(=O)N(c2cc(Cl)cc(Cl)c2)C1=O (stereo not shown)
Result string: 125 to 250 µM

Query string: Request: Cellular Toxicity Assay MTT LD50, test system SKW3 cells, entry C[C@@]1(Cc2ccc(Br)cc2)C(=O)N(c2cc(Cl)cc(Cl)c2)C(=O)N1CCCCC[N+](C)(C)C
Result string: 100 to 200 µM

Query string: Request: Cellular Toxicity Assay MTT LD50, test system SKW3 cells, entry CC(C)N1C(=O)N(c2cc(Cl)cc(Cl)c2)C(=O)C1(C)Cc1ccc(Br)cc1 (stereo not shown)
Result string: 300 µM

Query string: Request: Cellular Toxicity Assay MTT LD50, test system SKW3 cells, entry CC(C)(C)N1C(=O)N(c2cc(Cl)cc(Cl)c2)C(=O)C1(C)Cc1ccc(Br)cc1 (stereo not shown)
Result string: 155 to 310 µM

Query string: Request: Cellular Toxicity Assay MTT LD50, test system SKW3 cells, entry C[C@@]1(Cc2ccc(Br)cc2)C(=O)N(c2cc(Cl)cc(Cl)c2)C(=O)N1CCCCCS(=O)(=O)O
Result string: 100 to 200 µM

Query string: Request: Cellular Toxicity Assay MTT LD50, test system SKW3 cells, entry CN1C(=O)N(c2cc(Cl)cc(Cl)c2)C(=O)[C@@]1(C)Cc1cc(Br)cc(Br)c1
Result string: 200 to 400 µM

Query string: Request: Cellular Toxicity Assay MTT LD50, test system SKW3 cells, entry C[C@]1(Cc2ccc(Br)cc2)NC(=O)N(c2cc(Cl)cc(Cl)c2)C1=O
Result string: 63 to 125 µM

Query string: Request: Cellular Toxicity Assay MTT LD50, test system SKW3 cells, entry COc1ccc(CC2NC(=O)N(c3cc(Cl)cc(Cl)c3)C2=O)cc1 (stereo not shown)
Result string: 125 to 500 µM

Query string: Request: Cellular Toxicity Assay MTT LD50, test system SKW3 cells, entry C[C@@]1(Cc2ccc(Br)cc2)C(=O)N(c2cc(Cl)cc(Cl)c2)C(=O)N1CCCC(=O)O
Result string: 200 to 400 µM

Query string: Request: Cellular Toxicity Assay MTT LD50, test system SKW3 cells, entry C[C@@]1(Cc2ccc(Br)cc2)C(=O)N(c2cc(Cl)cc(Cl)c2)C(=O)N1CCCCCC(=O)O
Result string: 100 µM

Query string: Request: Cellular Toxicity Assay MTT LD50, test system SKW3 cells, entry O=C1NC(CCc2ccccc2)C(=O)N1c1cc(Cl)cc(Cl)c1 (stereo not shown)
Result string: 125 to 250 µM
